# Procedure Details: Pharmacokinetic testing in crab-eating macaques (cynomolgus monkey), IV and PO
# Type: in vivo
# Measurement Conditions: cynomolgus monkey, IV, 0.5 mg/kg, plasma
Listed here: items and their measured half-life.

Compound	half-life
Cc1cc(-n2nc3c(c2-n2ccn(-c4ccc5c(cnn5C)c4F)c2=O)[C@H](C)N(C(=O)c2cc4cc([C@H]5CCOC(C)(C)C5)ccc4n2[C@@]2(c4noc(=O)[nH]4)[C@@H]4CN(c5ccccn5)C[C@@H]42)CC3)cc(C)c1F	618 min
Cc1cc(-n2nc3c(c2-n2ccn(-c4ccc5c(cnn5C)c4F)c2=O)[C@H](C)N(C(=O)c2cc4cc([C@H]5CCOC(C)(C)C5)ccc4n2[C@@]2(c4noc(=O)[nH]4)[C@@H]4CN(c5ncccn5)C[C@@H]42)CC3)cc(C)c1F	378 min
Cc1cc(-n2nc3c(c2-n2ccn(-c4ccc5c(cnn5C)c4F)c2=O)[C@H](C)N(C(=O)c2cc4cc([C@H]5CCOC(C)(C)C5)ccc4n2[C@@]2(c4noc(=O)[nH]4)C[C@@H]2C)CC3)cc(C)c1F [Orforglipron, reference compound]	204 min
